All values here come from the supplement of paper PMC9170038.

apparent KD of K4 kissing-loop reporter values by entry
Tested on: K4 kissing-loop RNA reporter;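 also: bound reporter read as fluorescence of individual clusters on recovered sequencing chips by microscopy, with normalized cluster intensities fitted with a binding model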
assay protocol: apparent KD of K4 kissing-loop reporter; higher = weaker reporter binding
condition notes: Eterna round: R107; input ligand: arginine 13.2 mM
A complete answer gives the number followed by the unit.

>>> measured("UGACUGGACUGAAGGAGCGCGCGAGACAAAGUCUCGAACUCGUAGUGAUGUUAGGAAAUAACGCAGGUAGGUCGCAGUCUAGUCU")
"417 nM"

*Q* What value of apparent KD of K4 kissing-loop reporter has been reported for the following sequence? GUAGCACUUGGUAGUGAUGUUACCAAGGACAAGGAUAUCAUCUCAAUGAGAAGGUGUCCUUGGUAACAGCUACGGGAAUAUCCCA [Omei KL FMN A Exc D v2]
*A* 194 nM

*Q* Let us now turn to "UGAUAGGACAGAAGGAGCGGCAGUGAUGUUGCCAAAAGGAUAAGGUGUCAAAAGACACCCUGCCAGGUAGGUCGCUGUCCUAUCU"
*A* 366 nM

*Q* Let us now turn to UAUGGUCCAUCAAGAGUAGUGAUGUUAUAACGAGGACCGGUACGGCCGCCACUCGAGGCCGUAAUACUCGAUCGGAUGCUGAGUG [theeternabot_exclusion_KL_Trp_A_28]
*A* 819 nM

*Q* Let us now turn to UUAGGAGUGGGAGGAUAUCCUGGUGUGGGUGAUGUUAGUGAUGUUGAAAGUGUAGUGAUGUUGUGCGGAGAAGGUCCAGUGUUGA [BDazzled - #10 - Exc. FMN B]
*A* 295 nM

*Q* Let us now turn to UGACUGGACUGAAGGAGCGGGAAACUCCUAGUGAUGUUAGGAAUACGAGACAAAGUCUCGACCCAGGUAGGUCGCAGUCUAGUCU [ArgBS 17 #SwitchBubble #StaticStem]
*A* 93.3 nM

====

Test system: MS2 coat protein
assay protocol: apparent KD of MS2 coat protein; designed switch direction (-1 OFF switch, 1 ON switch): -1; higher = weaker reporter binding
condition notes: input ligand: none
apparent KD of MS2 coat protein values by entry
State just the number; it will be interpreted in nM.

// below: answered sequences
>>> measured("UUUAAUUUUUUUUUUUUACAAGCUUUUUGCUCGUCUUAUACAUGAGGAUCACCCAUGUGGGUGGAAAAUAAAUUAUC [JMF 92] (Eterna round: R96, puzzle: Sensor v3, turn-off variant 2)")
472
>>> measured("AUAAGUAUAUAGGAUAUCUAGCUGGAUACAGCUAGAGAAGGAUGUACAUGAGGAUCACCCAUGUAAAUCUCAAU [Ex6/12-A1] (Eterna round: R97, puzzle: Exclusion 6)")
15.1
>>> measured("CGCUGGUGAGGAUAUGGGUGUGGUUACAUGAGGAUCACCCAUGUGGAGUCGCAUGUGGGUCCAGAAGGCGCGGGUG [-25.2, -23.4 kcal, 18% A] (Eterna round: R97, puzzle: Exclusion 5)")
215
>>> measured("CAAAACCGAGGAUAUACUUCGGAGAUAAAGGUAAGUCAAAGACUUGAGGAUCACCCAAGUAGAAGGCGGACGGA [Laeded] (Eterna round: R97, puzzle: Exclusion 2)")
22.4

*Q* What value of apparent KD of MS2 coat protein has been reported for the following sequence? GGAGGAAAGAUAGGAUAUUAGAGGAAGGUGGUGAUAGAGACAUGAGGAUCACCCAUGUAAGGAGGUAAGAAGGGUCGAGGAGGA [AK ExNG2-V2-6] (Eterna round: R96, puzzle: Exclusion NG 2)
*A* 243

*Q* Let us now turn to UAAACCAGAGGAUAUGCGAAUAAAUAAAACUUUUUUUUUUAACAUGAGGAUCACCCAUGUAGAAGGCUGCAAAU [Ex2 #33] (Eterna round: R97, puzzle: Exclusion 2)
*A* 38.9

*Q* Let us now turn to GAAACGGGUGCACCUCAGUCACAUGAGGAUCACCCAUGUUCUGAGGAUAUGCAUCCAAACGGAACGCAGAAGGCGGAACGUAAC [Beisoner] (Eterna round: R96, puzzle: Exclusion NG 3)
*A* 16.4
